The entries below come with measured melting point values attached.

Data request: Endpoint output: melting point of Cl.Nc1ccc(-c2ccccc2OCC2CC2)c(N)n1 [Compound 65] . Value?
Data returned: 63 to 68 °C

====

Consider the following pKi values measured on UniProtKB Q9GZQ6.
Sequence (Q9GZQ6 whole entry): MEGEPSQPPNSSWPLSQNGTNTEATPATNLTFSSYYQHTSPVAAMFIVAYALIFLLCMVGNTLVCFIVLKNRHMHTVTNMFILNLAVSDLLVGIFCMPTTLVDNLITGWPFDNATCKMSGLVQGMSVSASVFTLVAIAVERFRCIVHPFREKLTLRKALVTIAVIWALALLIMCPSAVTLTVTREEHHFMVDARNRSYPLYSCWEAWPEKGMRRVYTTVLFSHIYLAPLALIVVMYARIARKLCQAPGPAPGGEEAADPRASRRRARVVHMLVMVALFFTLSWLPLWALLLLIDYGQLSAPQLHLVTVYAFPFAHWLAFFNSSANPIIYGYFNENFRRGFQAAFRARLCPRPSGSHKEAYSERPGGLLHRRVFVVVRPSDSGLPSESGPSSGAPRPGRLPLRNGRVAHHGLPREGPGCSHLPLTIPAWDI
The scale used: pKi is minus the common logarithm of the concentration in molar units.

Worked examples follow.
>  <molecule>
Nc1ccc(Cc2ccccc2)c(N)n1 [Compound 10a, 3-benzylpyridine-2,6-diamine]

>  <result.number>
7.12

$$$$
>  <molecule>
Cc1ccccc1-c1c(C)cc(N)nc1N

>  <result.number>
6.74

$$$$
>  <molecule>
CCc1nc(N)ccc1-c1ccccc1OC

>  <result.number>
7.82

$$$$
>  <molecule>
COc1cc(F)ccc1-c1ccc(N)nc1N

>  <result.number>
7.56

$$$$

API: the following record is the query input.
Data request: What does the data say about its pKi? Entry: "CC(C)Oc1ccccc1-c1ccc(N)nc1N"
Data returned: 7.95
